pIC50: −log10 of the molar value.
# UniProt P06870: pIC50 values follow
# Sequence (P06870 25-262): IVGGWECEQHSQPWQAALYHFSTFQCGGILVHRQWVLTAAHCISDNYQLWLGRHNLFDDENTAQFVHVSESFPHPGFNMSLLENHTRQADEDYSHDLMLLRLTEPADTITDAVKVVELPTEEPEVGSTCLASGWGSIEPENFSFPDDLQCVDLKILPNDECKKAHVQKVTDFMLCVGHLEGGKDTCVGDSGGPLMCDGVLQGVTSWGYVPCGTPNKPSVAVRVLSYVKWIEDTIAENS

Use these answered entries as a reference point.
[
  {
    "molecule": "Nc1nccc2c(NCc3ccc(N4CCn5c(nnc5C(F)(F)F)C4)nc3)cccc12",
    "pIC50": "5.00 to 5.52"
  },
  {
    "molecule": "Nc1nccc2c(NCc3ccc(OCC4CCn5ccnc5C4)nc3)cccc12 (single isomer, unassigned) [Example 1030]",
    "pIC50": "5.00 to 5.52"
  },
  {
    "molecule": "CN1[C@@H]2COC[C@H]1CC(OCc1ccc(CNc3cccc4c(N)nccc34)c(F)c1)C2 (some centres unmarked)",
    "pIC50": "4.40 to 5.00"
  },
  {
    "molecule": "CN1CC(C2CN(c3cc(CNc4ccc5c(N)nccc5c4)ccn3)C2)C1",
    "pIC50": "5.52 to 6.00"
  }
]

UniProt P06870 / pIC50 / Cn1ccnc1COCc1ccc(CNc2cccc3c(N)nccc23)c(F)c1 : value?
4.40 to 5.00

UniProt P06870 / pIC50 / CN1CCC(CNc2ccc(CNc3ccc4cnccc4c3F)cn2)CC1 : value?
< 4.40

UniProt P06870 / pIC50 / Nc1nccc2c(NCc3cnc(N4CCn5c(nnc5C(F)(F)F)C4)cn3)cccc12 : value?
5.00 to 5.52

UniProt P06870 / pIC50 / CN1C[C@H](COc2cc(CNc3cccc4c(N)nccc34)ccn2)OC1=O : value?
4.40 to 5.00

---

# tested_on: Human Factor XIIa (Homo sapiens (Human), UniProt P00748)
# Sequence (P00748 373-615): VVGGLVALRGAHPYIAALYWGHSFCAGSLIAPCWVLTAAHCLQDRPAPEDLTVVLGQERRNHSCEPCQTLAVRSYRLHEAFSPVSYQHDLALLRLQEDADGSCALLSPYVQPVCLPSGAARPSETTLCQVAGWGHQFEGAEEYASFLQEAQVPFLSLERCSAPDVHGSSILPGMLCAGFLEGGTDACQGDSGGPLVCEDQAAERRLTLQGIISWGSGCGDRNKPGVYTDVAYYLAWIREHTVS
measured_attribute: IC50

Human Factor XIIa (Homo sapiens (Human), UniProt P00748) / IC50 / CN1CCC(OCc2ccc(CN(C)c3ccc4c(N)nccc4c3)cc2)CC1 [Example 2190] : value?
1 to 3 µM

Human Factor XIIa (Homo sapiens (Human), UniProt P00748) / IC50 / CN1CCC(COc2cc(CNc3cnc4[nH]cc(C#N)c4c3)ccn2)CC1 [Example 4460] : value?
40 to 100 µM

Human Factor XIIa (Homo sapiens (Human), UniProt P00748) / IC50 / COc1cc(NCc2ccnc(OCC3CCN(C)CC3)c2)cc2ccncc12 [Example 4462] : value?
3 to 10 µM

Human Factor XIIa (Homo sapiens (Human), UniProt P00748) / IC50 / Nc1ncc(Cl)c2cc(NCc3cccc(CC(=O)N4CCn5ccnc5C4)c3)ccc12 [Example 5442] : value?
10 to 40 µM

Human Factor XIIa (Homo sapiens (Human), UniProt P00748) / IC50 / Cc1nnc2n1CCN(c1ccc(CNc3cccc4c(N)nccc34)cn1)C2 [Example 1279] : value?
0.1 to 0.3 µM

Human Factor XIIa (Homo sapiens (Human), UniProt P00748) / IC50 / Nc1nccc2c(NCc3ccc(N4CCn5ncc(CO)c5C4)nc3)cccc12 [Example 1269] : value?
10 to 40 µM

Human Factor XIIa (Homo sapiens (Human), UniProt P00748) / IC50 / CN1CCC(COc2cc(CNc3ccc(F)c4c(N)nccc34)ccn2)CC1 [Example 4469] : value?
3 to 10 µM

Human Factor XIIa (Homo sapiens (Human), UniProt P00748) / IC50 / Nc1nccc2cc(NCc3ccc(COC4CCN(C5CC5)CC4)cc3)ccc12 [Example 2195] : value?
0.3 to 1 µM

Human Factor XIIa (Homo sapiens (Human), UniProt P00748) / IC50 / Nc1nccc2c(NCc3cc(N4CCn5c(nnc5C(F)(F)F)C4)cs3)cccc12 [Example 8459] : value?
0.1 to 0.3 µM
